Please find below pIC50 measurements for SYK kinase (Homo sapiens), combined from several publications.
pIC50: −log10 of the molar value.

Which measured pIC50 value corresponds to Cn1cc(-c2nccn3nc(Nc4ccc5c(c4)NS(=O)(=O)C5)nc23)cn1 ?
6.52 to 7.00

Query (molecule): CC(=O)N1CCN(c2ccc(Nc3nc(-c4ccno4)nc4cn[nH]c34)cc2)CC1 ; field requested: pIC50
6.00 to 7.00

Reported pIC50, molecule CC1(C)C(=O)Nc2cc(Nc3nc4c(N5CCC[C@@H]5C(N)=O)nccn4n3)ccc21 : ____
5.52 to 6.52

Need pIC50, item CC1(C)C(=O)Nc2cc(Nc3nc4c(N5CC(O)CC5c5ccccc5)nccn4n3)ccc21 (stereo not drawn)
5.52 to 6.52

Name the reported pIC50 value associated with the molecule Cn1cc(-c2nccn3nc(Nc4ccc(S(C)(=O)=O)cc4)nc23)cn1
5.52 to 6.52

Quick one: pIC50 of CC12Oc3ccc(cc3NC1=O)Nc1nc(ncc1F)Nc1ccc(cc1)OCCC(=O)NCCCNC2=O (stereo not drawn) ?
5.52 to 6.52

Requested field: pIC50. Item: CCc1ccc(OC)cc1-c1cc2nccc(-c3ccc4[nH]cnc4c3)c2o1
4.30 to 5.52

Give its pIC50 value. Item: c1nn(C2CCNC2)cc1Nc1nc(C2C3CCCCC32)nc2cn[nH]c12 (stereo not drawn)
6.00 to 7.00

// pIC50 lookup, key: COc1cc(Nc2nc(-c3cnc4c(c3)NCCO4)cn3ccnc23)ccc1N1CCC2(CC1)OCCO2
8.52
